# Tested on: human APOE RNA
# MEASUREMENT_DESCRIPTION: Dose-dependent inhibition of human APOE RNA in HepG2 cells, electroporation, 24 hours (Example 6)
# Type: cell-based
# EXPERIMENTAL_SETUP: 8,000 nM
Strand notation (5' to 3'): a small letter for the sugar, then the base; units joined by * are phosphorothioate-linked, units joined directly phosphodiester-linked; [ ] holds rarer units or linkages, { } end groups; capitals alone tell only the bases. [ms] = mesyl phosphoramidate linkage; e = 2'-O-(2-methoxyethyl) (MOE); k = constrained ethyl (cEt); [5mC] = 5-methylcytosine; d = 2'-deoxy (DNA)
Reported APOE RNA (% UTC) values follow for various substances

Examples with answers:
{"SUBSTANCE": "1736526: 6-10-4 MOE gapmer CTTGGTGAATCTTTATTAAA, linkages ssoooszzsssssssssss (e[5mC]*eT*eTeGeGeT*dG[ms]dA[ms]dA*dT*d[5mC]*dT*dT*dT*dA*dT*eT*eA*eA*eA) [compound 1736526]", "APOE RNA (% UTC)": "25 % UTC"}
{"SUBSTANCE": "1736519: 6-10-4 MOE gapmer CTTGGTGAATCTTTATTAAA, linkages sososszzzssssssssss (e[5mC]*eTeT*eGeG*eT*dG[ms]dA[ms]dA[ms]dT*d[5mC]*dT*dT*dT*dA*dT*eT*eA*eA*eA) [compound 1736519]", "APOE RNA (% UTC)": "16 % UTC"}

Dear colleague, I am looking for the recorded APOE RNA (% UTC) of the following substance: 1736534 (e[5mC]*eT*eT*eG*eGeT*dG[ms]dA[ms]dA[ms]dT*d[5mC]*dT*dT*dT*dA[ms]dT*kT*kA*eA*eA; antisense) [Compound 1736534]
19 % UTC

I'd like to know its APOE RNA (% UTC). The substance in question is 1736521: 6-10-4 MOE gapmer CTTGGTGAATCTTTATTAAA, linkages sosssszzzsssssssoss (e[5mC]*eTeT*eG*eG*eT*dG[ms]dA[ms]dA[ms]dT*d[5mC]*dT*dT*dT*dA*dT*eTeA*eA*eA) [compound 1736521]
10 % UTC

====

# System: human APOE RNA
# MEASUREMENT_DESCRIPTION: Dose-dependent inhibition of human APOE RNA in differentiated SH-SY5Y cells, free uptake, 5 days (Example 5)
# Assay type: cell-based
# EXPERIMENTAL_SETUP: 5 days (Table 14)
Strand notation (5' to 3'): a small letter for the sugar, then the base; units joined by * are phosphorothioate-linked, units joined directly phosphodiester-linked; [ ] holds rarer units or linkages, { } end groups; capitals alone tell only the bases. [ms] = mesyl phosphoramidate linkage; e = 2'-O-(2-methoxyethyl) (MOE); k = constrained ethyl (cEt); [5mC] = 5-methylcytosine; d = 2'-deoxy (DNA)
READOUT_NAME: pIC50
Just the number, please; pIC50 means minus log10 of the concentration in mol/L.

Param item = 1778128: modified oligonucleotide complementary to human APOE RNA (eA*e[5mC]eTeTkGkG*dT*dG[ms]dA[ms]dA*dT*d[5mC]*dT*dT*dT*dA[ms]kTeT*eA*eA; antisense) [compound 1778128] ; retrieve measured pIC50.
6.28

Name the recorded pIC50 for 1757575 (eA*e[5mC]eTeT*kG*kG*dT*dG[ms]dA[ms]dA[ms]dT*d[5mC]*dT*dT*dT*dA[ms]kT*eT*eA*eA; antisense) [Compound 1757575] .
8.00

Please look up its pIC50: 1785599: modified oligonucleotide complementary to human APOE RNA (k[5mC]*kT*kT*dG[ms]dG[ms]dT[ms]dG[ms]dA[ms]dA[ms]dT[ms]d[5mC]*dT*dT*dT*dA*dT*kT*kA*dA[ms]kA; antisense) [compound 1785599]
7.00

Param item = 1778111: modified oligonucleotide complementary to human APOE RNA (eA*e[5mC]eTeTeG*kG*dT*dG[ms]dA[ms]dA*dT*d[5mC]*dT*dT*dT*dA[ms]eTeT*eA*eA; antisense) [compound 1778111] ; retrieve measured pIC50.
6.96

Record request: pIC50 value, item ^mCksTksTksGdzGdzTdzGdzAdzAdzTds^mCdsTdsTdsTdsAdsTdsTksAksAdzAk (antisense k[5mC]*kT*kT*dG[ms]dG[ms]dT[ms]dG[ms]dA[ms]dA[ms]dT*d[5mC]*dT*dT*dT*dA*dT*kT*kA*dA[ms]kA) [Compound No. 1785602]
6.64

Quick one: pIC50 of 1778130: modified oligonucleotide complementary to human APOE RNA (eA*e[5mC]eTeTeG*kG*dT*dG[ms]dA[ms]dA*dT*d[5mC]*dT*dT*dT*dA[ms]kTkT*eA*eA; antisense) [compound 1778130] ?
6.43

Can you look up the measured pIC50 of 1785617: modified oligonucleotide complementary to human APOE RNA (k[5mC]*dT[ms]dT[ms]kG*dG[ms]kT*dG[ms]dA[ms]dA[ms]dT[ms]d[5mC]*dT*dT*dT*dA*dT*kT*kA*dA[ms]kA; antisense) [compound 1785617] for me?
6.28

Fill in: pIC50 of 1746809 (k[5mC]*dT[ms]kT*dG[ms]kG*dT[ms]dG[ms]dA[ms]dA[ms]dT*d[5mC]*dT*dT*dT*dA[ms]dT*dT[ms]kA*kA*kA; antisense) [Compound 1746809] is ___
6.18

====

# Test system: human APOE RNA
# MEASUREMENT_DESCRIPTION: Dose-dependent inhibition of human APOE RNA in differentiated SH-SY5Y cells, free uptake, 5 days (Example 5)
# Type: cell-based
# EXPERIMENTAL_SETUP: 33 nM, 5 days (Table 13)
Strand notation (5' to 3'): a small letter for the sugar, then the base; units joined by * are phosphorothioate-linked, units joined directly phosphodiester-linked; [ ] holds rarer units or linkages, { } end groups; capitals alone tell only the bases. [ms] = mesyl phosphoramidate linkage; e = 2'-O-(2-methoxyethyl) (MOE); k = constrained ethyl (cEt); [5mC] = 5-methylcytosine; d = 2'-deoxy (DNA)
READOUT_NAME: APOE RNA (% UTC)
Respond numerically; units are % UTC and should not be typed.

These solved cases illustrate the format of a correct answer.
{"SUBSTANCE": "TezTeoGeoGksTdsGdzAdzAdzTds^mCdsTdsTdsTdsAdzTksTksAesAesAes^mCe (antisense eT[ms]eTeGkG*dT*dG[ms]dA[ms]dA[ms]dT*d[5mC]*dT*dT*dT*dA[ms]kT*kT*eA*eA*eA*e[5mC]) [Compound No. 1809814]", "READOUT_NAME": "APOE RNA (% UTC)", "UNIT_ABBREVIATION": "% UTC", "REPORTED_VALUE": 61}
{"SUBSTANCE": "Aks^mCeoTeoTesGesGksTdsGdzAdzAdzTds^mCdsTdsTdsTdsAdzTksTksAesAe (kA*e[5mC]eTeT*eG*kG*dT*dG[ms]dA[ms]dA[ms]dT*d[5mC]*dT*dT*dT*dA[ms]kT*kT*eA*eA) [Compound No. 1809635]", "READOUT_NAME": "APOE RNA (% UTC)", "UNIT_ABBREVIATION": "% UTC", "REPORTED_VALUE": 52}
{"SUBSTANCE": "^mCksTksTksGdzGdzTdzGdzAdzAdzTds^mCdsTdsTdsTdsAdsTdsTksAksAdzAk (antisense k[5mC]*kT*kT*dG[ms]dG[ms]dT[ms]dG[ms]dA[ms]dA[ms]dT*d[5mC]*dT*dT*dT*dA*dT*kT*kA*dA[ms]kA) [Compound No. 1785602]", "READOUT_NAME": "APOE RNA (% UTC)", "UNIT_ABBREVIATION": "% UTC", "REPORTED_VALUE": 64}

What value of APOE RNA (% UTC) has been recorded for this entry: Aes^mCeoTeoTesGesGksTdsGdzAdzAdzTds^mCdsTdsTdsTdsAdzTksTksAesAe (eA*e[5mC]eTeT*eG*kG*dT*dG[ms]dA[ms]dA[ms]dT*d[5mC]*dT*dT*dT*dA[ms]kT*kT*eA*eA) [Compound No. 1757576]
45

====

# Test system: human APOE RNA
# MEASUREMENT_DESCRIPTION: Dose-dependent inhibition of human APOE RNA in HepG2 cells, electroporation, 50,000 cells per well, RT-PCR normalized to GAPDH (Example 4, Tables 8-10)
# Type: cell-based
# EXPERIMENTAL_SETUP: 20,000 nM; HepG2, electroporation, 24-hour treatment
Strand notation (5' to 3'): a small letter for the sugar, then the base; units joined by * are phosphorothioate-linked, units joined directly phosphodiester-linked; [ ] holds rarer units or linkages, { } end groups; capitals alone tell only the bases. [ms] = mesyl phosphoramidate linkage; k = constrained ethyl (cEt); [5mC] = 5-methylcytosine; d = 2'-deoxy (DNA)
Classification field. Basis: APOE RNA (% UTC). Definitions: low bracket (below 9 % UTC), middle bracket (9 % UTC to below 20 % UTC), high bracket (20 % UTC or more)

Answered examples (5):
{"SUBSTANCE": "1746785 (k[5mC]*kT*dT[ms]kG*dG[ms]dT[ms]dG[ms]dA[ms]dA[ms]dT*d[5mC]*dT*dT*dT*dA[ms]dT*kT*kA*dA[ms]kA; antisense) [Compound 1746785]", "DISCRETE_LABEL": "high bracket"}
{"SUBSTANCE": "1746794 (k[5mC]*kT*kT*dG[ms]dG[ms]dT[ms]dG[ms]dA[ms]dA[ms]dT*d[5mC]*dT*dT*dT*dA[ms]dT*kT*dA[ms]kA*kA; antisense) [Compound 1746794]", "DISCRETE_LABEL": "low bracket"}
{"SUBSTANCE": "1746789 (k[5mC]*dT[ms]kT*dG[ms]kG*dT[ms]dG[ms]dA[ms]dA[ms]dT*d[5mC]*dT*dT*dT*dA[ms]dT*kT*kA*dA[ms]kA; antisense) [Compound 1746789]", "DISCRETE_LABEL": "low bracket"}
{"SUBSTANCE": "1746791 (k[5mC]*dT[ms]dT[ms]kG*kG*dT[ms]dG[ms]dA[ms]dA[ms]dT*d[5mC]*dT*dT*dT*dA[ms]dT*kT*kA*dA[ms]kA; antisense) [Compound 1746791]", "DISCRETE_LABEL": "high bracket"}
{"SUBSTANCE": "1746805 (k[5mC]*kT*dT[ms]kG*dG[ms]dT[ms]dG[ms]dA[ms]dA[ms]dT*d[5mC]*dT*dT*dT*dA[ms]dT*dT[ms]kA*kA*kA; antisense) [Compound 1746805]", "DISCRETE_LABEL": "middle bracket"}

Note: place this substance into its band. Item: 1746799 (k[5mC]*dT[ms]kT*dG[ms]kG*dT[ms]dG[ms]dA[ms]dA[ms]dT*d[5mC]*dT*dT*dT*dA[ms]dT*kT*dA[ms]kA*kA; antisense) [Compound 1746799]
high bracket

Input 1746800 (k[5mC]*dT[ms]kT*dG[ms]dG[ms]kT*dG[ms]dA[ms]dA[ms]dT*d[5mC]*dT*dT*dT*dA[ms]dT*kT*dA[ms]kA*kA; antisense) [Compound 1746800] ; output its category
low bracket

Class label required: 1746787 (k[5mC]*kT*dT[ms]dG[ms]dG[ms]kT*dG[ms]dA[ms]dA[ms]dT*d[5mC]*dT*dT*dT*dA[ms]dT*kT*kA*dA[ms]kA; antisense) [Compound 1746787]
middle bracket
